The measured values listed here are drawn from paper PMC7050655.

# EXPERIMENTAL_SYSTEM: human membrane bound IRAP overexpressed in HEK293 cells (Homo sapiens, UniProt Q9UIQ6)
# Sequence (Q9UIQ6 whole entry): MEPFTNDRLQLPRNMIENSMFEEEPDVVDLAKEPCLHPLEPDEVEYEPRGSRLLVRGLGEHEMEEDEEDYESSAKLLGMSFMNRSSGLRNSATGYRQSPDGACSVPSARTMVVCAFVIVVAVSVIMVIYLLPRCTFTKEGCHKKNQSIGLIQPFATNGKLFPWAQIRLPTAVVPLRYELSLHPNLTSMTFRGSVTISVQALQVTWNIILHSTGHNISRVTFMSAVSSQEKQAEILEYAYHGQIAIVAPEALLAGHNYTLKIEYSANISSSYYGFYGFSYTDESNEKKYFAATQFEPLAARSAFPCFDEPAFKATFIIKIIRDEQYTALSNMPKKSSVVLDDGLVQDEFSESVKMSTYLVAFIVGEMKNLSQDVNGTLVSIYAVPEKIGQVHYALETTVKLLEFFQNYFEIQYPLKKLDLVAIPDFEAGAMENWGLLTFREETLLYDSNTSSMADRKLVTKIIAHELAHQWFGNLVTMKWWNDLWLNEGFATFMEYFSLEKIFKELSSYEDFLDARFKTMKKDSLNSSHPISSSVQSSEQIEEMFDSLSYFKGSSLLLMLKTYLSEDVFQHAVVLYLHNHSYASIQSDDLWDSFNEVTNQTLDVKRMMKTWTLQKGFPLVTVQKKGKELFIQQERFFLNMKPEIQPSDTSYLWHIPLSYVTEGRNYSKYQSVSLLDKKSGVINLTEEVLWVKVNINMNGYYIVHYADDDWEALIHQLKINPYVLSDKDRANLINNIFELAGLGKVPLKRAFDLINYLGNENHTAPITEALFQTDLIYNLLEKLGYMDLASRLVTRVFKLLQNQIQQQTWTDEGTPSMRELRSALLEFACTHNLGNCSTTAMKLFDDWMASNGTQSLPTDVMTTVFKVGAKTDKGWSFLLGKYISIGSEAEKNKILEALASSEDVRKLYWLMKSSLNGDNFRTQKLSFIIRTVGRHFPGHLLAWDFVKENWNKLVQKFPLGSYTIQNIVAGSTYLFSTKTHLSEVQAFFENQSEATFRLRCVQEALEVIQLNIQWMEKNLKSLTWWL
RESULT_TYPE: pIC50
Numbers only, as −log10 of the molar value.

1. CN1C(=O)C2(Nc3ccccc3C(=O)N2Cc2ccccc2)c2cc(Br)ccc21 (racemic) [Compound 32] :: 5.30
2. Cc1ccc(N2C(=O)c3ccccc3NC23C(=O)N(C)c2ccc([N+](=O)[O-])cc23)cc1 (stereo not drawn) [Compound 7] :: 4.50
3. COCCN1C(=O)c2ccccc2NC12C(=O)N(C)c1ccc(Br)cc12 (stereo not drawn) [Compound 39] :: 4.30

Hello, I would appreciate it if you could give pIC50 for each entry below.
1. CN1C(=O)C2(Nc3ccccc3C(=O)N2Cc2ccco2)c2cc(Br)ccc21 (stereo not drawn) [Compound 37]
2. CN(C)CCN1C(=O)c2ccccc2NC12C(=O)N(C)c1ccc(Br)cc12 (stereo not drawn) [Compound 40]
3. CN1C(=O)C2(Nc3ccccc3C(=O)N2Cc2cccnc2)c2cc(Br)ccc21 (stereo not drawn) [Compound 36]

Response:
1. 4.90
2. 4.40
3. 4.50

----------
Give half-life for every item shown.
# PROTOCOL_DESCRIPTION: Metabolic stability in rat hepatocytes
# Format: in vitro ADME
# CONDITION_INFO: Rat hep. t 1/2, rat hepatocytes
Numbers only, in min.

1) CN1C(=O)C2(Nc3ccccc3C(=O)N2Cc2cccnc2)c2cc(Br)ccc21 (stereo not shown) :: 8.5

State the recorded half-life for every item in the following list.
1. CN1C(=O)C2(Nc3ccccc3C(=O)N2Cc2ccco2)c2cc(Br)ccc21 (stereo not shown)
2. COCCN1C(=O)c2ccccc2NC12C(=O)N(C)c1ccc(Br)cc12 (stereo not shown)
3. CCCCN1C(=O)c2ccccc2NC12C(=O)N(C)c1ccc(Br)cc12 (stereo not shown)
4. CN(C)CCN1C(=O)c2ccccc2NC12C(=O)N(C)c1ccc(Br)cc12 (stereo not shown)
5. Cc1ccc(N2C(=O)c3ccccc3NC23C(=O)N(C)c2ccc([N+](=O)[O-])cc23)cc1 (stereo not shown)

Response:
1. 5.5
2. 7.6
3. 2.8
4. 5.2
5. 6.1

----------
# PROTOCOL_DESCRIPTION: Metabolic stability in human liver microsomes
# Type: in vitro ADME
RESULT_TYPE: half-life

Examples with their reported half-life follow.
1. CCc1ccccc1-c1ccc2c(c1)C1(Nc3ccccc3C(=O)N1c1ccc(C)cc1)C(=O)N2C (stereo not drawn) [Compound 15] :: < 2.3 min
2. CN1C(=O)C2(Nc3ccccc3C(=O)N2Cc2ccco2)c2cc(Br)ccc21 (stereo not drawn) [Compound 37] :: < 2.3 min

Request: Which half-life reading was recorded for the compound CN(C)CCN1C(=O)c2ccccc2NC12C(=O)N(C)c1ccc(Br)cc12 (stereo not drawn) [Compound 40] ?
Response: 8.6 min

----------
# PROTOCOL_DESCRIPTION: Metabolic stability in human liver microsomes
# Type: in vitro ADME
Can you tell me half-life for the items I'm about to list?

1) CCCCN1C(=O)c2ccccc2NC12C(=O)N(C)c1ccc(Br)cc12 (stereo not shown) [Compound 38] :: < 2.3 min
2) COCCN1C(=O)c2ccccc2NC12C(=O)N(C)c1ccc(Br)cc12 (stereo not shown) [Compound 39] :: < 2.3 min
3) CN1C(=O)C2(Nc3ccccc3C(=O)N2Cc2cccnc2)c2cc(Br)ccc21 (stereo not shown) [Compound 36] :: < 2.3 min

// next entry
Request: Tell me the measured half-life of Cc1ccc(N2C(=O)c3ccccc3NC23C(=O)N(C)c2ccc([N+](=O)[O-])cc23)cc1 (stereo not shown) [Compound 7] , please.
Response: < 2.3 min
